- tgt: T1, recombinant human CFD mutant 1 (R157A, R207A), His-tagged (human, UniProt P00746 26-253)
- T1 construct: positions are linear positions in the mature protein; also called rhCFD-mut1-His; Mut1
- assay.remarks: ELISA
The entries below are paired with their reported Mut1 Binding (% wt).

KCD104 (antibody, V domains shown, chimeric) VH: QVQLQQPGAELVRPGTSVKLSCKASGYTFTSYWMHWVKQRPGQGLEWIGVIDPSDSYTYYNQKFKGKATLTVDTSSSTAYMQLSSLTSEDSAVYYCARNGYDGAMDYWGQGTSVTVSS VL: EIQMTQTTSSLSASLGDRVTISCRASQDISNYLNWYQQKPDGTVKLLIYYPSRLHSGVPSRFSGSGSGTDYSLTISNLEQEDFATYFCQQGNTLPYTFGGGTKLEIK : 68.3 % wt
KCD002 (antibody, V domains shown, chimeric) VH: EVKLVESEGGLVQPGSSMKLSCTASGFTFSDYYMAWVRQVPEKGLEWVGNINYDGSSTYYLDSLKSRFIISRDSAKNILYLQMSSLKSEDTATYFCARGEDFYLYAMDYWGQGTSVTVSS VL: DIQMTQSPASLSASVGETVTITCRASENIHSYLAWYQQKQGKSPQLIVYNTKTLAEGVPSRFSGSGSGTQFSLKINSLQPEDFGSYYCQHHYGIPPTFGGGTKLEIK : 71.2 % wt

Challenge: Reported Mut1 Binding (% wt), binder KCD102 (antibody, V domains shown, chimeric) VH: QVQLQQPGAELVRPGTSVKLSCKASGYTFTSYWMHWVKQRPGQGLEWIGVIDPSDSYTNYNQKFKGKATLTVDTSSSTAYMQLSSLTSEDSAVYYCARNGYDGSMDYWGQGTSVTVSS VL: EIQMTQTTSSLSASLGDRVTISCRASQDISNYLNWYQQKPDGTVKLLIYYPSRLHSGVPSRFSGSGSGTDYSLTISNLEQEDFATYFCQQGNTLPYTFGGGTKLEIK : ____
Response given: 64.3 % wt

Challenge: Reported Mut1 Binding (% wt), binder KCD220 (antibody, V domains shown, chimeric) VH: QVQLQQSGAELMEPGASVKLSCKATGYTFTGYWIEWVKQRPGHGLEWIGETLPGSDSNNYNEKFKGKATFTADTSSNTAYMQLSSLTTEDSAIYYCARDYSNYWYFDVWGTGTTVTVSS VL: DIQMTQTTSSLSASLGDRVTISCRASQDISNYLNWYQQKPDGTVKLLIYYTSNLHSGVPSRFSGSGSGTDYSLTISNLEQEDIATYFCQQDSKHRTFGGGTKLEIK : ____
Response given: 74.1 % wt
